Test system: P388
Experiment: Compound was evaluated for antitumor activity in mice bearing P388 leukemic cells and average survival time
Format: functional, Mus musculus
MEASURE NAME: Time (days)
Report the value in days with no unit label.

Using the record for `O=[N+]([O-])c1ccc(/C=N/NS(=O)(=O)c2ccc(Cl)cc2)cc1` , report its Time.
15.2

Now the same for `COc1ccc(S(=O)(=O)N/N=C/c2ccc([N+](=O)[O-])cc2)cc1.Cl`
14.6

Then this compound: `Cc1cc(C)c(S(=O)(=O)N/N=C/c2ccncc2)c(C)c1.Cl`
18.8

Same question for `COc1ccc(S(=O)(=O)N/N=C/c2ccncc2)cc1.Cl` please.
18

// repeat for `CC(C)c1cc(C(C)C)c(S(=O)(=O)N/N=C/c2ccncc2)c(C(C)C)c1.Cl` and report
17

====

Assay: Maximum effective daily dose required to inhibit the tumors of sarcoma 180 ascites cells
Format: functional, Mus musculus
MEASURE NAME: Dose (mg/kg)
Report as a plain number; the unit mg/kg is understood.

Please look up its Dose: `Cc1ccc(S(=O)(=O)N/N=C/c2ccncc2)cc1`
100

Same lookup for `CC(C)c1cc(C(C)C)c(S(=O)(=O)N/N=C/c2ccncc2)c(C(C)C)c1.Cl` , please.
200

Subsequent entry: `COc1ccc(S(=O)(=O)N/N=C/c2ccc([N+](=O)[O-])cc2)cc1.Cl`
100

Lookup `CC(=O)Nc1ccc(S(=O)(=O)N/N=C/c2ccncc2)cc1.Cl`
150

Okay, and `Cl.O=S(=O)(N/N=C/c1ccncc1)c1ccc(Cl)cc1` ?
150

Try this molecule next: `O=[N+]([O-])c1ccc(/C=N/NS(=O)(=O)c2ccc(Cl)cc2)cc1`
100

Further, for `COc1ccc(S(=O)(=O)N/N=C/c2ccncc2)cc1OC.Cl` ?
200

Continue with `CN(/N=C/c1ccncc1)S(=O)(=O)c1ccc(Cl)cc1.Cl`
100

Now the molecule `Cl.O=S(=O)(N/N=C/c1ccncc1)c1ccccc1`
100

Next record, please: `Cc1ccc(S(=O)(=O)N/N=C/c2ccncc2)cc1.Cl`
100

Thanks! And `Cc1ccc(S(=O)(=O)N/N=C/c2ccc([N+](=O)[O-])cc2)cc1.Cl` ?
100

Similarly, `Cc1cc(C)c(S(=O)(=O)N/N=C/c2ccncc2)c(C)c1.Cl` ?
50

====

Give T/C for every item shown.
Species on record: Mus musculus
Test: Ratio of average survival time of treated to control mice bearing sarcoma 180 ascites cells
Type: functional
Please reply with the bare figure in % and do not write the unit itself.

Look at this compound and give its reported T/C. `Cc1ccc(S(=O)(=O)N/N=C/c2ccncc2)cc1`
222

Now this one: `Cl.O=S(=O)(N/N=C/c1ccncc1)c1ccccc1`
225

Next: `Cc1ccc(S(=O)(=O)N/N=C/c2ccncc2)cc1.Cl`
249

Let us now turn to `Cc1cc(C)c(S(=O)(=O)N/N=C/c2ccc([N+](=O)[O-])cc2)c(C)c1.Cl`
231

Another compound to look at: `CC(C)c1cc(C(C)C)c(S(=O)(=O)N/N=C/c2ccncc2)c(C(C)C)c1.Cl`
262

Entry `Cl.O=[N+]([O-])c1ccc(S(=O)(=O)N/N=C/c2ccncc2)cc1` please
328

Next compound: `Cl.O=[N+]([O-])c1ccc(/C=N/NS(=O)(=O)c2ccccc2)cc1`
182

Record: `CN(/N=C/c1ccncc1)S(=O)(=O)c1ccc(Cl)cc1.Cl`
110

Can you check `COc1ccc(S(=O)(=O)N/N=C/c2ccc([N+](=O)[O-])cc2)cc1.Cl` next?
159

Another compound to look at: `O=[N+]([O-])c1ccc(/C=N/NS(=O)(=O)c2ccc(Cl)cc2)cc1`
189

====

Tested on: P388
Experiment: Compound was evaluated for average change in body weight from onset to the termination of drug therapy in mice bearing P388 leukemic cells
Type: functional, Mus musculus
MEASURE NAME: Weight change (%)
Just the number please, in %, no unit attached.

Give the measured Weight change of `COc1ccc(S(=O)(=O)N/N=C/c2ccc([N+](=O)[O-])cc2)cc1.Cl` .
-5.7

Likewise for `O=[N+]([O-])c1ccc(/C=N/NS(=O)(=O)c2ccc(Cl)cc2)cc1` ?
-2.4

Moving on to the next molecule: `Cc1ccc(S(=O)(=O)N/N=C/c2ccc([N+](=O)[O-])cc2)cc1.Cl`
-3

Next entry: `COc1ccc(S(=O)(=O)N/N=C/c2ccncc2)cc1.Cl`
0.7

Moving on to the next molecule: `Cl.O=S(=O)(N/N=C/c1ccncc1)c1ccccc1`
-3.1

Further, for `Cc1cc(C)c(S(=O)(=O)N/N=C/c2ccncc2)c(C)c1.Cl` ?
-2.2

Moving on to the next molecule: `Cc1cc(C)c(S(=O)(=O)N/N=C/c2ccc([N+](=O)[O-])cc2)c(C)c1.Cl`
-3.5

====

Test: Maximum effective daily dose required to inhibit the tumors of sarcoma 180 ascites cells
Format: functional, Mus musculus
MEASURE NAME: Dose
Remember to put the unit after the number in your answer.

Could you share which Dose value was measured for `C/C(=N\NS(=O)(=O)c1c(C)cc(C)cc1C)c1ccncc1` ?
100 mg/kg

Subsequent entry: `COc1ccc(S(=O)(=O)N/N=C/c2ccncc2)cc1.Cl`
100 mg/kg

And what about the compound `Cc1cc(C)c(S(=O)(=O)N/N=C/c2ccc([N+](=O)[O-])cc2)c(C)c1.Cl` ?
100 mg/kg

Repeat with `Cl.O=[N+]([O-])c1ccc(S(=O)(=O)N/N=C/c2ccncc2)cc1`
75 mg/kg

Please answer likewise for `Cl.O=[N+]([O-])c1ccc(/C=N/NS(=O)(=O)c2ccccc2)cc1`
150 mg/kg

====

Test system: P388
Assay: Compound was evaluated for antitumor activity in mice bearing P388 leukemic cells and average survival time
Type: functional, Mus musculus
MEASURE NAME: Time (days)
Please reply with the bare figure in days and do not write the unit itself.

Tell me reported Time for `Cl.O=[N+]([O-])c1ccc(/C=N/NS(=O)(=O)c2ccccc2)cc1` , tested with P388.
14.8

Input `Cc1ccc(S(=O)(=O)N/N=C/c2ccncc2)cc1.Cl`
17.2

Moving on to the next compound: `Cl.O=[N+]([O-])c1ccc(S(=O)(=O)N/N=C/c2ccncc2)cc1`
17.6

====

Experiment: Compound was evaluated for antitumor activity in mice (control group) bearing sarcoma 180 ascites cells from average survival time
Format: functional, Mus musculus
MEASURE NAME: Time (days)
Express the result in days but write the number alone.

Looking for the measured Time of `C/C(=N\NS(=O)(=O)c1c(C)cc(C)cc1C)c1ccncc1` , can you help?
16.8

Also `Cl.O=S(=O)(N/N=C/c1ccncc1)c1ccc(Cl)cc1` , if possible.
11.8

Same again, this time with `CN(/N=C/c1ccncc1)S(=O)(=O)c1ccc(Cl)cc1.Cl`
14.6

And `CC(=O)Nc1ccc(S(=O)(=O)N/N=C/c2ccncc2)cc1.Cl` ?
11.8

Try this compound too: `COc1ccc(S(=O)(=O)N/N=C/c2ccncc2)cc1OC.Cl`
11.8

# repeat for `Cc1ccc(S(=O)(=O)N/N=C/c2ccncc2)cc1`
14.6

# repeat for `Cc1ccc(S(=O)(=O)N/N=C/c2ccc([N+](=O)[O-])cc2)cc1.Cl`
15

====

Exercise: state measured Time for each of the molecules provided.
Tested on: P388
Assay: Compound was evaluated for antitumor activity in mice bearing P388 leukemic cells from average survival time
Format: functional, Mus musculus
Please give the number followed by its unit.

Which Time is reported for this molecule? `Cl.O=S(=O)(N/N=C/c1ccncc1)c1ccccc1`
18 days

Try this molecule next: `Cl.O=S(=O)(N/N=C/c1ccncc1)c1ccc(Cl)cc1`
16.6 days

Then what about the molecule `COc1ccc(S(=O)(=O)N/N=C/c2ccncc2)cc1OC.Cl` ?
17.6 days

Note, next up: `Cc1ccc(S(=O)(=O)N/N=C/c2ccc([N+](=O)[O-])cc2)cc1.Cl`
15.2 days

Next molecule up: `CC(=O)Nc1ccc(S(=O)(=O)N/N=C/c2ccncc2)cc1.Cl`
17.6 days

Follow-up entry: `Cc1cc(C)c(S(=O)(=O)N/N=C/c2ccc([N+](=O)[O-])cc2)c(C)c1.Cl`
17.2 days
